Data origin, for the record: patent US11661431B2

This section presents compounds with their documented EC50 values.
- TARGET OF ASSAY: TLR7 (Homo sapiens (Human), UniProt Q9NYK1)
- Sequence (Q9NYK1 27-1049): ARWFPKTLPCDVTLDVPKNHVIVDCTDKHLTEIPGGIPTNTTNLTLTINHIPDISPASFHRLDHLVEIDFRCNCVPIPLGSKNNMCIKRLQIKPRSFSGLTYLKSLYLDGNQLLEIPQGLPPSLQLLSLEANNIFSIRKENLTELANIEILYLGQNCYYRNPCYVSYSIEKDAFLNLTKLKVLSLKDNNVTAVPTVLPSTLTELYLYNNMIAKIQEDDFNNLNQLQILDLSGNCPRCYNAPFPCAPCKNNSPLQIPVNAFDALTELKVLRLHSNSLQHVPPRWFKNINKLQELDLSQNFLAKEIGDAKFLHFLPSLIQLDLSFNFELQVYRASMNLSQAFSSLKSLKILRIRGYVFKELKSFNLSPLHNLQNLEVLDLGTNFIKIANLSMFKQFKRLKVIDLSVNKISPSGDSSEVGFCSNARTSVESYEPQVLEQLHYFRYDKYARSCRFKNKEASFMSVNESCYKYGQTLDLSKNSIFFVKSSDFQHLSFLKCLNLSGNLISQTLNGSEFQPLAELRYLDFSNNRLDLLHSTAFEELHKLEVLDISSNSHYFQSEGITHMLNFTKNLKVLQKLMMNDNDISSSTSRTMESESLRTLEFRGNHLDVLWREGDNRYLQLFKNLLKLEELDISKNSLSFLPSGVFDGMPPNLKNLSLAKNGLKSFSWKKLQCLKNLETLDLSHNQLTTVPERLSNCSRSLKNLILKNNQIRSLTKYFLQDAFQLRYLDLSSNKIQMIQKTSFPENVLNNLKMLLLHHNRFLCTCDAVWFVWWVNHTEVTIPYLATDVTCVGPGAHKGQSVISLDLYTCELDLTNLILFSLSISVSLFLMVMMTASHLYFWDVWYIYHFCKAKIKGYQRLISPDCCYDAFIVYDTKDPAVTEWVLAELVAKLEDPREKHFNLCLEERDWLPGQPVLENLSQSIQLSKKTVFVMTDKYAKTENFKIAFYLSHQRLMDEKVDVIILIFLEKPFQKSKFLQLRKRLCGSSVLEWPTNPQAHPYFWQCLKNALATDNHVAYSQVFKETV
- PROTOCOL DESCRIPTION: TLR7 human peripheral blood mononuclear cell (PBMC) cell-based assay (GS-986 as agonist; IL-6 and IFNα readout)
- CONDITION INFO: human PBMCs, TLR7 agonist GS-986 at 400 nM, 6 hours, antagonist potency; read-out: TLR-7 EC50
ENDPOINT LABEL: EC50 (nM)

>>> reading("Cc1c(-c2[nH]c3sc(C45CCN(CC(N)=O)CC4C5)c(C)c3c2C(C)C)cn2ncnc2c1C (centres unmarked) [Example 93]")
1.36
>>> reading("Cc1c(C2CCNC2)sc2[nH]c(-c3cc(C)c4ncnn4c3)c(C(C)C)c12 (centres unmarked)")
0.21
>>> reading("Cc1c(C2CCN(C(=O)C3(N4CCOCC4)CC3)CC2)sc2[nH]c(-c3cc(C)c4ncnn4c3)c(C(C)C)c12")
0.39
>>> reading("Cc1c(C2C3CN(CC(N)=O)CC32)sc2[nH]c(-c3cc(C)c4ncnn4c3)c(C(C)C)c12 (centres unmarked)")
2.59
>>> reading("Cc1c(C2CCC3(CCNCC3)C2)sc2[nH]c(-c3cc(C)c4ncnn4c3)c(C(C)C)c12 (centres unmarked)")
0.27
>>> reading("Cc1c(-c2[nH]c3sc([C@@H]4C[C@@H]5C[C@H]4CN5C4CCS(=O)(=O)CC4)c(C)c3c2C(C)C)cn2ncnc2c1C")
0.74
>>> reading("Cc1c(-c2[nH]c3sc(C4C[C@@H]5CN[C@H]4C5)c(C)c3c2C(C)C)cn2ncnc2c1C (some centres unmarked)")
0.07
>>> reading("Cc1c(-c2[nH]c3sc([C@@H]4C[C@@H]5C[C@H]4CN5CC4(F)COC4)c(C)c3c2C(C)C)cn2ncnc2c1C")
0.15
>>> reading("Cc1c(-c2[nH]c3sc([C@@H]4C[C@@H]5C[C@H]4CN5CCCS(C)(=O)=O)c(C)c3c2C(C)C)cn2ncnc2c1C")
0.23
>>> reading("Cc1c(-c2[nH]c3sc(-c4ccc(C5CCNCC5)cc4)c(C)c3c2C(C)C)cn2ncnc2c1C")
0.45
>>> reading("Cc1c(-c2[nH]c3sc([C@@H]4C[C@@H]5C[C@H]4CN5CC(N)=O)c(C)c3c2C(C)C)cn2nc(Cl)nc2c1C")
0.54
>>> reading("Cc1c(-c2[nH]c3sc(C4CCN(C(=O)[C@@H]5CCCN5)CC4)c(C)c3c2C(C)C)cn2ncnc2c1C")
0.43
>>> reading("Cc1c(C23CC2CCN(CC(N)=O)C3)sc2[nH]c(-c3cc(C)c4ncnn4c3)c(C(C)C)c12 (centres unmarked)")
0.72
